target: human Sirtuin 2 (SIRT2), SIRT2 (gene 22933) (UniProt Q8IXJ6); assay: NVS_ENZ_hSIRT2: NovaScreen (NVS) Enzymatic Assay for human Sirtuin 2 (SIRT2) (AID 2283217)
Sequence (Q8IXJ6 whole entry, looked up): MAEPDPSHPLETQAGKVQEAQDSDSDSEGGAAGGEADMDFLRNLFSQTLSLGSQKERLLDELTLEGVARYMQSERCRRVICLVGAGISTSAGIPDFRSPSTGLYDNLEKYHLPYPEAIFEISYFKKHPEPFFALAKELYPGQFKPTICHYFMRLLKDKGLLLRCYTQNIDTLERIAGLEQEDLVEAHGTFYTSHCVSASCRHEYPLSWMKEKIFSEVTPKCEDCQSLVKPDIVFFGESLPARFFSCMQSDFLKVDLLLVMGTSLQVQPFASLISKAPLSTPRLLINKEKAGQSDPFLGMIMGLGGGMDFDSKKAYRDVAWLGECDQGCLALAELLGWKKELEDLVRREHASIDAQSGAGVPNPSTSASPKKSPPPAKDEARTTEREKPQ
Results filed as inconclusive are left out. Activity calls are given as the source filed them. The calls were made as follows: active = hit-call score of the fitted dose curve at least 0.9, where 1 is the maximum; inconclusive = response in the unintended direction; inactive = score below 0.9.
TEST_READOUT: outcome

# annotated cases, reported outcome shown
INSERT INTO results (compound_structure, measured_target, endpoint_result) VALUES
  ('Cc1ncc([C@@H](CCCCCCc2ccc3c(n2)NCCC3)CC(=O)O)cn1', 'human Sirtuin 2 (SIRT2), SIRT2 (gene 22933) (UniProt Q8IXJ6)', 'inactive'),
  ('Cc1nc(-c2ccccn2)ncc1C(=O)Nn1cc(C)c2cc(F)ccc21', 'human Sirtuin 2 (SIRT2), SIRT2 (gene 22933) (UniProt Q8IXJ6)', 'inactive'),
  ('COCc1nnc(-c2ccc[n+]([O-])c2)n1-c1c(Cl)c(Cl)cc2[nH]c(=O)c(=O)[nH]c12', 'human Sirtuin 2 (SIRT2), SIRT2 (gene 22933) (UniProt Q8IXJ6)', 'inactive'),
  ('O=C(O)c1ccc2c(c1)nc(C(=O)NC1CCN(C3CC3)CC1)n2Cc1cc(-c2ccc(Cl)s2)on1', 'human Sirtuin 2 (SIRT2), SIRT2 (gene 22933) (UniProt Q8IXJ6)', 'inactive');

Give the reported outcome for this compound. "CCCC(CCC)C(=O)O"
inactive

Give the reported outcome for this compound. "CCCCCCCC/C=C\CCCCCCCC(=O)OC[C@@H](O)[C@H]1OC[C@H](O)[C@H]1O"
inactive
